TEST NAME: Pharmacokinetics of caspofungin during continuous venovenous hemodiafiltration (CVVHD)
Type: in vivo, human
ASSAY CONTEXT: human, in vivo, iv, patient 7; 6 h after infusion ended; steady state, CVVHD; HPLC; read-out: Arterial caspofungin concentration
ASSAY METRIC: level at 6 h (ng/mL)

1) CC[C@H](C)C[C@H](C)CCCCCCCCC(=O)N[C@H]1C[C@@H](O)[C@@H](NCCN)NC(=O)[C@@H]2[C@@H](O)CCN2C(=O)[C@H]([C@H](O)CCN)NC(=O)[C@H]([C@H](O)[C@@H](O)c2ccc(O)cc2)NC(=O)[C@@H]2C[C@@H](O)CN2C(=O)[C@H]([C@@H](C)O)NC1=O [caspofungin]; 3540

* * *

TEST NAME: Pharmacokinetics of caspofungin during continuous venovenous hemodiafiltration (CVVHD)
Assay type: in vivo, human
ASSAY CONTEXT: human, in vivo, iv, patient 6; 8 h after infusion ended; steady state, CVVHD; HPLC; read-out: Arterial caspofungin concentration
ASSAY METRIC: level at 8 h (ng/mL)

1. CC[C@H](C)C[C@H](C)CCCCCCCCC(=O)N[C@H]1C[C@@H](O)[C@@H](NCCN)NC(=O)[C@@H]2[C@@H](O)CCN2C(=O)[C@H]([C@H](O)CCN)NC(=O)[C@H]([C@H](O)[C@@H](O)c2ccc(O)cc2)NC(=O)[C@@H]2C[C@@H](O)CN2C(=O)[C@H]([C@@H](C)O)NC1=O; 4710

* * *

TEST NAME: Pharmacokinetics of caspofungin during continuous venovenous hemodiafiltration (CVVHD)
Assay type: in vivo, human
ASSAY CONTEXT: human, in vivo, iv, patient 8; 6 h after infusion ended; steady state, CVVHD; HPLC; read-out: Arterial caspofungin concentration
ASSAY METRIC: level at 6 h (ng/mL)

1) CC[C@H](C)C[C@H](C)CCCCCCCCC(=O)N[C@H]1C[C@@H](O)[C@@H](NCCN)NC(=O)[C@@H]2[C@@H](O)CCN2C(=O)[C@H]([C@H](O)CCN)NC(=O)[C@H]([C@H](O)[C@@H](O)c2ccc(O)cc2)NC(=O)[C@@H]2C[C@@H](O)CN2C(=O)[C@H]([C@@H](C)O)NC1=O; 5330

* * *

TEST NAME: Pharmacokinetics of caspofungin during continuous venovenous hemodiafiltration (CVVHD)
Format: in vivo, human
ASSAY CONTEXT: human, in vivo, iv, patient 11; 4 h after infusion ended; steady state, CVVHD; HPLC; read-out: Arterial caspofungin concentration
ASSAY METRIC: level at 4 h

1) CC[C@H](C)C[C@H](C)CCCCCCCCC(=O)N[C@H]1C[C@@H](O)[C@@H](NCCN)NC(=O)[C@@H]2[C@@H](O)CCN2C(=O)[C@H]([C@H](O)CCN)NC(=O)[C@H]([C@H](O)[C@@H](O)c2ccc(O)cc2)NC(=O)[C@@H]2C[C@@H](O)CN2C(=O)[C@H]([C@@H](C)O)NC1=O [caspofungin]; 6620 ng/mL

* * *

TEST NAME: Pharmacokinetics of caspofungin during continuous venovenous hemodiafiltration (CVVHD)
Type: in vivo, human
ASSAY CONTEXT: human, in vivo, iv, patient 9; 4 h after infusion ended; steady state, CVVHD; HPLC; read-out: Arterial caspofungin concentration
ASSAY METRIC: level at 4 h

1) CC[C@H](C)C[C@H](C)CCCCCCCCC(=O)N[C@H]1C[C@@H](O)[C@@H](NCCN)NC(=O)[C@@H]2[C@@H](O)CCN2C(=O)[C@H]([C@H](O)CCN)NC(=O)[C@H]([C@H](O)[C@@H](O)c2ccc(O)cc2)NC(=O)[C@@H]2C[C@@H](O)CN2C(=O)[C@H]([C@@H](C)O)NC1=O; 5320 ng/mL

* * *

TEST NAME: Pharmacokinetics of caspofungin during continuous venovenous hemodiafiltration (CVVHD)
Format: in vivo, human
ASSAY CONTEXT: human, in vivo, iv, patient 12; 2 h after infusion ended; steady state, CVVHD; HPLC; read-out: Arterial caspofungin concentration
Method: The aim of the present study was to describe the pharmacokinetics of caspofungin in 12 critically ill adult patients with suspected or proven invasive candidiasis who were receiving continuous venovenous hemodiafiltration (CVVHD). CVVHD was performed using a polysulfone hemofilter (Fresenius, Germany). Caspofungin was administered at usual doses. […]
ASSAY METRIC: level at 2 h (ng/mL)

1) CC[C@H](C)C[C@H](C)CCCCCCCCC(=O)N[C@H]1C[C@@H](O)[C@@H](NCCN)NC(=O)[C@@H]2[C@@H](O)CCN2C(=O)[C@H]([C@H](O)CCN)NC(=O)[C@H]([C@H](O)[C@@H](O)c2ccc(O)cc2)NC(=O)[C@@H]2C[C@@H](O)CN2C(=O)[C@H]([C@@H](C)O)NC1=O; 4610

* * *

TEST NAME: Pharmacokinetics of caspofungin during continuous venovenous hemodiafiltration (CVVHD)
Assay type: in vivo, human
ASSAY CONTEXT: human, in vivo, iv, patient 10; 1.5 h after infusion ended; steady state, CVVHD; HPLC; read-out: Arterial caspofungin concentration
Experimental: The aim of the present study was to describe the pharmacokinetics of caspofungin in 12 critically ill adult patients with suspected or proven invasive candidiasis who were receiving continuous venovenous hemodiafiltration (CVVHD). CVVHD was performed using a polysulfone hemofilter (Fresenius, Germany). Caspofungin was administered at usual doses. […]
ASSAY METRIC: level at 1.5 h (ng/mL)

1) CC[C@H](C)C[C@H](C)CCCCCCCCC(=O)N[C@H]1C[C@@H](O)[C@@H](NCCN)NC(=O)[C@@H]2[C@@H](O)CCN2C(=O)[C@H]([C@H](O)CCN)NC(=O)[C@H]([C@H](O)[C@@H](O)c2ccc(O)cc2)NC(=O)[C@@H]2C[C@@H](O)CN2C(=O)[C@H]([C@@H](C)O)NC1=O; 8420

* * *

TEST NAME: Pharmacokinetics of caspofungin during continuous venovenous hemodiafiltration (CVVHD)
Format: in vivo, human
ASSAY CONTEXT: human, in vivo, iv; Mean ± SD of 12 patients; steady state, CVVHD; SD; read-out: Cmax
ASSAY METRIC: Cmax

1) CC[C@H](C)C[C@H](C)CCCCCCCCC(=O)N[C@H]1C[C@@H](O)[C@@H](NCCN)NC(=O)[C@@H]2[C@@H](O)CCN2C(=O)[C@H]([C@H](O)CCN)NC(=O)[C@H]([C@H](O)[C@@H](O)c2ccc(O)cc2)NC(=O)[C@@H]2C[C@@H](O)CN2C(=O)[C@H]([C@@H](C)O)NC1=O; 9300 ng/mL

* * *

TEST NAME: Pharmacokinetics of caspofungin during continuous venovenous hemodiafiltration (CVVHD)
Format: in vivo, human
ASSAY CONTEXT: human, in vivo, iv, patient 11; 1 h after infusion ended; steady state, CVVHD; HPLC; read-out: Arterial caspofungin concentration
ASSAY METRIC: level at 1 h (ng/mL)

1. CC[C@H](C)C[C@H](C)CCCCCCCCC(=O)N[C@H]1C[C@@H](O)[C@@H](NCCN)NC(=O)[C@@H]2[C@@H](O)CCN2C(=O)[C@H]([C@H](O)CCN)NC(=O)[C@H]([C@H](O)[C@@H](O)c2ccc(O)cc2)NC(=O)[C@@H]2C[C@@H](O)CN2C(=O)[C@H]([C@@H](C)O)NC1=O; 8880

* * *

TEST NAME: Pharmacokinetics of caspofungin during continuous venovenous hemodiafiltration (CVVHD)
Format: in vivo, human
ASSAY CONTEXT: human, in vivo, iv, patient 11; 24 h after infusion ended; steady state, CVVHD; HPLC; read-out: Arterial caspofungin concentration
ASSAY METRIC: level at 24 h (ng/mL)

1. CC[C@H](C)C[C@H](C)CCCCCCCCC(=O)N[C@H]1C[C@@H](O)[C@@H](NCCN)NC(=O)[C@@H]2[C@@H](O)CCN2C(=O)[C@H]([C@H](O)CCN)NC(=O)[C@H]([C@H](O)[C@@H](O)c2ccc(O)cc2)NC(=O)[C@@H]2C[C@@H](O)CN2C(=O)[C@H]([C@@H](C)O)NC1=O [caspofungin]; 4000

* * *

TEST NAME: Pharmacokinetics of caspofungin during continuous venovenous hemodiafiltration (CVVHD)
Format: in vivo, human
ASSAY CONTEXT: human, in vivo, iv, patient 6; 1 h after infusion ended; steady state, CVVHD; HPLC; read-out: Arterial caspofungin concentration
ASSAY METRIC: level at 1 h (ng/mL)

1. CC[C@H](C)C[C@H](C)CCCCCCCCC(=O)N[C@H]1C[C@@H](O)[C@@H](NCCN)NC(=O)[C@@H]2[C@@H](O)CCN2C(=O)[C@H]([C@H](O)CCN)NC(=O)[C@H]([C@H](O)[C@@H](O)c2ccc(O)cc2)NC(=O)[C@@H]2C[C@@H](O)CN2C(=O)[C@H]([C@@H](C)O)NC1=O [caspofungin]; 9110
